- System: E. coli ATTC 8739
- Type: cell-based, Escherichia coli
- PARTICULARS: ATTC 8739
Bridge positions count the residues as written; N and C are the ends. Square brackets hold non-standard residues; d marks the D form. Peptide text beside a SMILES is read from it. * marks the point of attachment. Decanoyl = CCCCCCCCCC(=O)*; Nonanoyl = CCCCCCCCC(=O)*; Dab = NCC[C@H](N)C(=O)O
Collected MIC E. coli values appear next to each entry.

| COMPOUND | OBSERVED |
| --- | --- |
| CCCCCCCCC(=O)N[C@@H](CCCNC(=N)N)C(=O)N[C@H](C(=O)N[C@@H](CCCNC(=N)N)C(=O)N[C@H]1CSSC[C@@H](C(N)=O)NC(=O)[C@H](CCCNC(=N)N)NC(=O)[C@H](CCCNC(=N)N)NC(=O)[C@H](CC(C)C)NC(=O)[C@@H](Cc2ccccc2)NC(=O)[C@H](CCCNC(=N)N)NC1=O)[C@@H](C)O [Analog 12] (Nonanoyl-RTRCR[dF]LRRC-NH2; disulfide 4-10) | 8 to 16 µg/mL |

Note: attention shifts to another entry.
Prompt: Would you kindly share the measured MIC E. coli for CCCCCCCCCC(=O)N[C@@H](CCN)C(=O)N[C@H](C(=O)N[C@@H](CCN)C(=O)N[C@H]1CSSC[C@H](C(N)=O)NC(=O)[C@H](CCN)NC(=O)[C@H](CCN)NC(=O)[C@H](CC(C)C)NC(=O)[C@@H](Cc2ccccc2)NC(=O)[C@H](CCN)NC1=O)[C@@H](C)O [Analog 37] (Decanoyl-[Dab]T[Dab]C[Dab][dF]L[Dab][Dab][dC]-NH2; disulfide 4-10) ?
Response: 2 µg/mL
